# Study Target: human liver FBPase (Homo sapiens, UniProt P09467)
# Sequence (P09467 2-338 limits assumed): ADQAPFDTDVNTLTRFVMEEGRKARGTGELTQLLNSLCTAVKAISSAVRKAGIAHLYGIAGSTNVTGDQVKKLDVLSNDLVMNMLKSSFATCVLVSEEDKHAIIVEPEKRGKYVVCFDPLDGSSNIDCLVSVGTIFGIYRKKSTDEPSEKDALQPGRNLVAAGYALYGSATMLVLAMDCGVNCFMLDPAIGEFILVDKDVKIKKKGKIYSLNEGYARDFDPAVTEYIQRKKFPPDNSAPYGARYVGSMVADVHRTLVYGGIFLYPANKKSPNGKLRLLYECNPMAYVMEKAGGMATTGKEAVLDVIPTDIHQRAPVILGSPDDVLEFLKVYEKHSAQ
# Test: Inhibition of Human Liver FBPase
# Experimental Setup: read-out: IC50 for AMP, human liver FBPase; text value for reference AMP

| Molecule | IC50 (µM) |
| --- | --- |
| Nc1ncnc2c1ncn2[C@@H]1O[C@H](COP(=O)(O)O)[C@@H](O)[C@H]1O [AMP, reference compound] | 1 |

====

# Study Target: human liver FBPase (Homo sapiens, UniProt P09467)
# Test: Inhibition of Human Liver FBPase
pIC50: −log10 of the molar value.

| Input Smiles | Study Target | pIC50 |
| --- | --- | --- |
| COc1c(Br)cccc1C(=O)OCP(=O)(O)O | human liver FBPase (Homo sapiens, UniProt P09467) | 5.38 |
| COc1ccc(CNc2ccc(NC(C)=O)cc2)cc1-c1ccc(P(=O)(O)O)o1 | human liver FBPase (Homo sapiens, UniProt P09467) | 5.19 |
| O=C(NCP(=O)(O)O)c1cc([N+](=O)[O-])cc([N+](=O)[O-])c1 | human liver FBPase (Homo sapiens, UniProt P09467) | 5.40 |
| O=P(O)(O)c1ccc(-c2ccc(Cl)cc2Cl)o1 | human liver FBPase (Homo sapiens, UniProt P09467) | 5.52 |
| Nc1cc(-c2ccc(P(=O)(O)O)o2)ccc1Br | human liver FBPase (Homo sapiens, UniProt P09467) | 5.26 |
| COc1ccc(Cl)cc1-c1ccc(P(=O)(O)O)o1 | human liver FBPase (Homo sapiens, UniProt P09467) | 6.30 |
| Nc1c(-c2ccc(P(=O)(O)O)o2)cc([N+](=O)[O-])cc1[N+](=O)[O-] | human liver FBPase (Homo sapiens, UniProt P09467) | 5.74 |
| O=[N+]([O-])c1cc(COCP(=O)(O)O)cc([N+](=O)[O-])c1 | human liver FBPase (Homo sapiens, UniProt P09467) | 5.05 |
| O=C(NCP(=O)(O)O)c1ccc(Br)o1 | human liver FBPase (Homo sapiens, UniProt P09467) | 5.40 |
| O=P(O)(O)c1ccc(-c2ccc(F)cc2)o1 | human liver FBPase (Homo sapiens, UniProt P09467) | 5.66 |
| O=[N+]([O-])c1cc(-c2ccc(P(=O)(O)O)o2)cc([N+](=O)[O-])c1 | human liver FBPase (Homo sapiens, UniProt P09467) | 6.51 |
| COc1cc(Cl)ccc1C(=O)OCP(=O)(O)O | human liver FBPase (Homo sapiens, UniProt P09467) | 5.55 |
| O=P(O)(O)C#Cc1ccccc1 | human liver FBPase (Homo sapiens, UniProt P09467) | 4.05 |
| COc1ccc(CNc2ccccc2)cc1-c1ccc(P(=O)(O)O)o1 | human liver FBPase (Homo sapiens, UniProt P09467) | 5.52 |
| COc1cc(COCP(=O)(O)O)ccc1Br | human liver FBPase (Homo sapiens, UniProt P09467) | 4.96 |
| O=C(OCP(=O)(O)O)c1ccc(Br)o1 | human liver FBPase (Homo sapiens, UniProt P09467) | 5.19 |
| COc1ccc(CNc2ccc(O)cc2)cc1-c1ccc(P(=O)(O)O)o1 | human liver FBPase (Homo sapiens, UniProt P09467) | 6.85 |
| COc1ccc(CNc2ccc(N)cc2)cc1-c1ccc(P(=O)(O)O)o1 | human liver FBPase (Homo sapiens, UniProt P09467) | 6.49 |
| COc1ccc(CN(C(C)=O)c2ccc(N)cc2)cc1-c1ccc(P(=O)(O)O)o1 | human liver FBPase (Homo sapiens, UniProt P09467) | 4.92 |

Where these numbers come from: patent US7371739B2
